Assign % Release of 1-MCP to each entry below.
test: Cyclopropene release measurement (headspace gas chromatography); type: physicochemical; details: deionized water #1, 5 ppm copper ion, metal-complexing agent 5 mM
Give a bare numeral; the unit % is implied.

// % Release of 1-MCP lookup, compound = O=C(O)C(O)C(O)C(=O)O (stereo not shown) , result: 85

% Release of 1-MCP reading for O=P([O-])([O-])OP(=O)([O-])[O-].[Na+].[Na+].[Na+].[Na+] [tetrasodium pyrophosphate] : 39

Per the records, this compound ( O=C([O-])[O-].[Na+].[Na+] [sodium carbonate] ) has % Release of 1-MCP equal to 68

According to the records, this compound O=C(O)CN(CC(=O)O)CC(=O)O displays % Release of 1-MCP of 100

All values here come from patent US8541344B2.
